Cited source for all entries: ChEMBL document CHEMBL3244396

tested on: P388; assay: Antitumor activity against mouse P388 cells allografted in female BDF1 mouse assessed as change in body weight at 25 mg/kg, ip administered daily for 9 days as Klucel suspension starting 24 hrs after tumor inoculation; type: functional; conditions: route intraperitoneal
# Lookup of reported Activity keyed by entry
Just the number in g, nothing appended.

[[record]]
query_smiles = "CNC(=O)OCc1c(COC(=O)NC)c(-c2ccc(Cl)cc2)n2c1CCC2"
reported_property = "Activity"
assay_result = -0.8

[[record]]
query_smiles = "CC(=O)OCc1c(COC(C)=O)c(-c2ccccc2)n2c1CCC2"
reported_property = "Activity"
assay_result = -2

[[record]]
query_smiles = "CC(=O)OCc1c(COC(C)=O)c(-c2ccc(Cl)cc2)n2c1CCC2"
reported_property = "Activity"
assay_result = -0.2


# ---- query compound ----
### Prompt Can you share its Activity? I mean this compound: CC(=O)OCc1c(COC(C)=O)c(-c2ccc(Cl)c(Cl)c2)n2c1CCC2
### Response 1.2

====

test system: Mus musculus; experiment: Toxicity in female CDF1 mouse allografted with mouse P388 cells assessed as animal survival at 200 mg/kg, ip administered daily for 9 days as Klucel suspension starting 24 hrs after tumor inoculation; format: organism-based; design: dose 200 mg/kg, route intraperitoneal; conditions: in vivo
reported.property: Activity

// worked examples, Activity included
[[record]]
query_smiles = "CC(=O)OCc1c(COC(C)=O)c(-c2ccc(Cl)cc2)n2c1CCC2"
assay_result = "Toxic"

[[record]]
query_smiles = "CC(=O)OCc1c(COC(C)=O)c(-c2ccc(Cl)c(Cl)c2)n2c1CCC2"
assay_result = "Non-toxic"

[[record]]
query_smiles = "CNC(=O)OCc1c(COC(=O)NC)c(-c2ccccc2)n2c1CCC2"
assay_result = "Non-toxic"

[[record]]
query_smiles = "CC(=O)OCc1c(COC(C)=O)c(C(F)(F)F)n2c1CCC2"
assay_result = "Non-toxic"


# ---- query compound ----
### Prompt Can you share its Activity? I mean this compound: CC(=O)OCc1c(COC(C)=O)c(-c2ccccc2)n2c1CCC2
### Response Toxic

====

# Lookup of reported T/C keyed by entry
system: P388; test: Antitumor activity against mouse P388 cells allografted in female CDF1 mouse assessed as disease cures by measuring 30-days host survival at 200 mg/kg, ip administered daily for 9 days as Klucel suspension starting 24 hrs after tumor inoculation relative to control; assay type: functional; conditions: route intraperitoneal

// worked examples, T/C included
[[record]]
query_smiles = "CNC(=O)OCc1c(COC(=O)NC)c(C(F)(F)F)n2c1CCC2"
assayed_system = "P388"
reported_property = "T/C"
assay_result = "82%"

[[record]]
query_smiles = "CC(=O)OCc1c(COC(C)=O)c(C(F)(F)F)n2c1CCC2"
assayed_system = "P388"
reported_property = "T/C"
assay_result = "104%"


### Prompt Hi! What's the reported T/C for CNC(=O)OCc1c(COC(=O)NC)c(-c2ccc(OC)cc2)n2c1CCC2 on P388?
### Response 55%

### Prompt Hi! What's the reported T/C for OCc1c(CO)c(C(F)(F)F)n2c1CCC2 on P388?
### Response 108%

### Prompt Hi! What's the reported T/C for CC(=O)OCc1c(COC(C)=O)c(-c2ccc(Cl)c(Cl)c2)n2c1CCC2 on P388?
### Response 127%

### Prompt Hi! What's the reported T/C for CNC(=O)OCc1c(COC(=O)NC)c(-c2ccccc2)n2c1CCC2 on P388?
### Response 59%
